Assay: Pharmacokinetic study of Icotinib hydrochloride and Polymorph Form II of Icotinib phosphate, oral suspension in fasted SD rats
Format: in vivo
Conditions: female, SD, rat, plasma, po, 50 mg/kg, female SD rats, dose equivalent to 50 mg/kg Icotinib, read-out: Cmax
Structures can show the parent of a compound that is named as a salt.
metric: Cmax
For clarity, give the value followed by its unit.

Provide Cmax value for the following compound: C#Cc1cccc(Nc2ncnc3cc4c(cc23)OCCOCCOCCO4)c1 [Icotinib hydrochloride]
10200 ng/mL

====

Experiment: Pharmacokinetic study of Icotinib hydrochloride and Polymorph Form II of Icotinib phosphate, oral suspension in fasted SD rats
Type: in vivo
Conditions: male, SD, rat, plasma, po, 50 mg/kg, male SD rats, dose equivalent to 50 mg/kg Icotinib
metric: AUC(0-inf) (ng·h/mL)
Numbers only, in ng·h/mL.

Provide AUC(0-inf) value for the following compound: C#Cc1cccc(Nc2ncnc3cc4c(cc23)OCCOCCOCCO4)c1 [Icotinib Phosphate polymorph form II, Icotinib phosphate]
28700
